TGT: purified tubulin and MAP2 (Homo sapiens)
TEST_DETAILS: MAP2-induced polymerization of microtubules in vitro (optical density at 345 nm)
Format: biochemical
TEST_CONDITIONS: purified tubulin and MAP2, 37° C., GTP
RECORDED_ENDPOINT: Activity (increase in optical density at 345 nm)

Illustrative cases are given below, each with its answer.
Enter reported Activity (increase in optical density at 345 nm) observed with purified tubulin and MAP2 (Homo sapiens) for CC(=O)[C@H]1CC[C@H]2[C@@H]3CC=C4C[C@@H](O)CC[C@]4(C)[C@H]3CC[C@]12C
100% of PREG

Lookup CO[C@H]1CC[C@@]2(C)[C@@H](CC[C@@H]3[C@@H]2CC[C@]2(C)[C@@H](C(C)=O)CC[C@@H]32)C1
10% of PREG

Lookup CC(=O)[C@@]12C[C@@H]1C[C@H]1[C@@H]3CC=C4C[C@@H](O)CC[C@]4(C)[C@H]3CC[C@@]12C
49% of PREG

Lookup CO[C@H]1CC[C@@]2(C)C(CCC3C2CC[C@@]2(C)C3CC[C@@H]2[C@@H](C)O)C1 (some centres unmarked)
65% of PREG

Continuing:
Enter reported Activity (increase in optical density at 345 nm) observed with purified tubulin and MAP2 (Homo sapiens) for CC(=O)[C@H]1[C@@H](C)C[C@H]2[C@@H]3CC=C4C[C@@H](O)CC[C@]4(C)[C@H]3CC[C@@]21C
67% of PREG

* * *

TGT: purified tubulin and MAP2 (Homo sapiens, UniProt P11137)
Sequence (P11137 whole entry): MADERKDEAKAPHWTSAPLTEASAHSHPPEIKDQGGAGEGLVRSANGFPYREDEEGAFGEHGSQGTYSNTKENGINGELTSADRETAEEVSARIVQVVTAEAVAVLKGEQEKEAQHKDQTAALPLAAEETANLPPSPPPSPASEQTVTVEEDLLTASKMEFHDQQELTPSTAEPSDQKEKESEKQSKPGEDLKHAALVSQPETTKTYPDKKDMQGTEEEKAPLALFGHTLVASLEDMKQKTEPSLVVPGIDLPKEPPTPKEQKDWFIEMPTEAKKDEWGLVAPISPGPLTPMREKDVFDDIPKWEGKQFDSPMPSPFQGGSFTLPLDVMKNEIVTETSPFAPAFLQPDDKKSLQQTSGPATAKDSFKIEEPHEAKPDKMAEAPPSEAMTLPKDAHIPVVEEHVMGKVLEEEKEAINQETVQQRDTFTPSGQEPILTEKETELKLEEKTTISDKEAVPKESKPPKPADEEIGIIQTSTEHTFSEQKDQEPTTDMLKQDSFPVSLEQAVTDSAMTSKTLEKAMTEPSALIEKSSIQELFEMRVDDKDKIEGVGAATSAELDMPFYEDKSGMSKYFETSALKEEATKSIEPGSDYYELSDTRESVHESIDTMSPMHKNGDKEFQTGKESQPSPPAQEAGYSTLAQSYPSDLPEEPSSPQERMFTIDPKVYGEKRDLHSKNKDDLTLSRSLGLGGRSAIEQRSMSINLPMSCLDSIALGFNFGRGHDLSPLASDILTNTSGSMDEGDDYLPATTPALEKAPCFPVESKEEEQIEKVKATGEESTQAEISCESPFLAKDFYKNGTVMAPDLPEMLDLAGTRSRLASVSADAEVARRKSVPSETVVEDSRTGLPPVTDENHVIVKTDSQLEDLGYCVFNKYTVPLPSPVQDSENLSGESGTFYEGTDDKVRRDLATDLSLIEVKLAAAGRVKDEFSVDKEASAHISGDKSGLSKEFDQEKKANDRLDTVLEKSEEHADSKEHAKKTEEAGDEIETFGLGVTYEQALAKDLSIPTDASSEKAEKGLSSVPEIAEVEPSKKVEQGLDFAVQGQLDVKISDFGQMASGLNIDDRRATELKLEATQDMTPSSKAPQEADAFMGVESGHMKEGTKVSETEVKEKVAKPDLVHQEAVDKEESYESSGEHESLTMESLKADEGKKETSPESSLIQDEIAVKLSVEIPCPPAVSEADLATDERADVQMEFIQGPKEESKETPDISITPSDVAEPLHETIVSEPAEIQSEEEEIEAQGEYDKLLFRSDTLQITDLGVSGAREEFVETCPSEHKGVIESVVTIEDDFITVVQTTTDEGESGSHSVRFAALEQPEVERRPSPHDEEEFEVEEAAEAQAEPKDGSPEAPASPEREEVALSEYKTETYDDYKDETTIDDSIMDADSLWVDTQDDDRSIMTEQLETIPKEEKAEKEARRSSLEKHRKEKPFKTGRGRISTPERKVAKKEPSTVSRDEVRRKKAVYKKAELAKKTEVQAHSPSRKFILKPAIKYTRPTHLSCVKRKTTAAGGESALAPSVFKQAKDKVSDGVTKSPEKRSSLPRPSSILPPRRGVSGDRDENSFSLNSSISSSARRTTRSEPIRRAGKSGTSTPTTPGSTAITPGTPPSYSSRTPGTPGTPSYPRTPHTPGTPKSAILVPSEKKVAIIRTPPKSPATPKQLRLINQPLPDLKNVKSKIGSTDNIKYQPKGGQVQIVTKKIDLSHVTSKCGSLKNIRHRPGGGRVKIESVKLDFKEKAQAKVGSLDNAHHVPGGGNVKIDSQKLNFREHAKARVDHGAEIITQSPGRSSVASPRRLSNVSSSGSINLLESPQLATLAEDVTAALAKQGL
TEST_DETAILS: MAP2-induced polymerization of microtubules in vitro (optical density at 345 nm)
Format: biochemical
TEST_CONDITIONS: purified tubulin and MAP2, 37° C., GTP
Exercise: for every item that follows, state its recorded Activity (increase in optical density at 345 nm).

Illustrative cases are given below, each with its answer.
Enter reported Activity (increase in optical density at 345 nm) observed with purified tubulin and MAP2 (Homo sapiens, UniProt P11137) for CC(=O)[C@H]1[C@H](C)C[C@H]2[C@@H]3CC[C@H]4C[C@@H](O)CC[C@]4(C)[C@H]3CC[C@@]21C [3β-hydroxy-5α-pregnane-20-one-16α-methyl]
53% of PREG

Lookup CO[C@H]1CC[C@@]2(C)C(=CC[C@@H]3[C@@H]2CC[C@@]2(C)[C@H]3CC[C@@]2(C(C)=O)C(Cl)Cl)C1
113% of PREG

Lookup CC(=O)[C@H]1[C@H](C)C[C@H]2[C@@H]3CC=C4C[C@@H](O)CC[C@]4(C)[C@H]3CC[C@@]21C
70% of PREG

Lookup CC(=O)O[C@H](C)[C@H]1CC[C@H]2[C@@H]3CC=C4C[C@@H](O)CC[C@]4(C)[C@H]3CC[C@]12C [Pregna-5-ene-3β,20β-diol-20-acetate]
108% of PREG

Lookup CO[C@H]1CC[C@@]2(C)C(=CC[C@H]3C4=CC[C@H](C(C)=O)[C@@]4(C)CC[C@@H]32)C1
50% of PREG

Continuing:
Enter reported Activity (increase in optical density at 345 nm) observed with purified tubulin and MAP2 (Homo sapiens, UniProt P11137) for CO[C@H]1CC[C@@]2(C)C(=CC[C@H]3[C@@H]4CC[C@H](C(C)=O)[C@@]4(C)CC[C@@H]32)C1
100% of PREG

Cited source for all entries: patent US20140045807A2
